- experimentalProtocol: Bi-directional permeability, CACO-2
- Assay type: in vitro ADME
- conditionLabel: human, Caco-2, pH 7, Caco-2, 10 μM, replicate 1; read-out: Papp, B-to-A Rep. 1
quantityMeasured: Papp B→A at 2 h, 10 µM (×10⁻⁶ cm/s)
Please reply with the bare figure in ×10⁻⁶ cm/s and do not write the unit itself.

CCc1ccc(C(=O)NN(C(=O)c2cc(C)cc(C)c2)C(C)(C)C)cc1 : 20.7

We now examine a further compound.
Input CCc1c(OC)cccc1C(=O)NN(C(=O)c1cc(C)cc(C)c1)C(C)(C)C . Output Papp B→A at 2 h, 10 µM: 23.3
